Reported clearance values follow for various compounds
Experimental Protocol: Blood clearance in iv dosed dog
Type: ADME, organism-based, Canis lupus familiaris

[[record]]
chem_smiles = "CC(C)(C)c1nc(-c2cccc(NS(=O)(=O)c3c(F)cccc3F)c2F)c(-c2ccnc(N)n2)s1"
observed_measurement = "4 mL/min/kg"


API: the following record is the query input.
Prompt: Item CC(C)c1nc(-c2cccc(NS(=O)(=O)c3c(F)cccc3F)c2F)c(-c2ccnc(Nc3ccc(N4CCOCC4)nc3)n2)s1 has what recorded clearance?
Completion: 38 mL/min/kg

---

Target Or System: Serine/threonine-protein kinase B-raf (Homo sapiens, UniProt P15056, V600E)
Sequence (P15056 2-766 V600E limits assumed): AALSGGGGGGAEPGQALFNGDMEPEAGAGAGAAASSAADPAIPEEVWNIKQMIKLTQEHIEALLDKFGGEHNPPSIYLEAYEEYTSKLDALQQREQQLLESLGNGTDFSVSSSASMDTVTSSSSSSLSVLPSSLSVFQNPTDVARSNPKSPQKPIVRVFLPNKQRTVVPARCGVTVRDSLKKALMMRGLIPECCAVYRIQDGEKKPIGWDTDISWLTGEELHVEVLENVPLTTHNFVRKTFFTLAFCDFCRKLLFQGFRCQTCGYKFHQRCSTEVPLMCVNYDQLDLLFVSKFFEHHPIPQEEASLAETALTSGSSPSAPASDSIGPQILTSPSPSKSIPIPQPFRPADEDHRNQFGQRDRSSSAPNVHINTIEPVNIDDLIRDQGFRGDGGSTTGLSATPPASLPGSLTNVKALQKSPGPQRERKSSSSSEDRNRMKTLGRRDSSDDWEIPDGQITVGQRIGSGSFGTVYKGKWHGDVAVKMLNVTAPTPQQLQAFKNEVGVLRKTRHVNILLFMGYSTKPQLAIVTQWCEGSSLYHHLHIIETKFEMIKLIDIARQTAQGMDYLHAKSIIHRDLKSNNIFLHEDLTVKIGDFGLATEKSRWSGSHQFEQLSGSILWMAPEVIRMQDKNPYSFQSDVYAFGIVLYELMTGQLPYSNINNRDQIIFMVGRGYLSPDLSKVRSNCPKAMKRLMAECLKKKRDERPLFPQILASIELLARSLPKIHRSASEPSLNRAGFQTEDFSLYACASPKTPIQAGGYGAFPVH
Experimental Protocol: Inhibition of N-terminal His tagged B-Raf V600E mutant (unknown origin) expressed in baculovirus infected insect cells co-expressing CDC37 assessed as decrease in biotinylated-MEK protein phosphorylation by AlphaScreen assay
Measurement Kind: pIC50
Please keep in mind that pIC50 is minus log10 of the molar concentration; only the number is needed.

[[record]]
chem_smiles = "CC(C)c1nc(-c2cccc(NS(=O)(=O)c3c(F)cccc3F)c2F)c(-c2ccnc(Nc3ccc(N4CCOCC4)nc3)n2)s1"
target_or_system = "Serine/threonine-protein kinase B-raf (Homo sapiens, UniProt P15056, V600E)"
measurement_kind = "pIC50"
observed_measurement = 8.42

[[record]]
chem_smiles = "CC(C)c1nc(-c2cccc(NS(=O)(=O)c3c(F)cccc3F)c2)c(-c2ccnc(NCCS(C)(=O)=O)n2)s1"
target_or_system = "Serine/threonine-protein kinase B-raf (Homo sapiens, UniProt P15056, V600E)"
measurement_kind = "pIC50"
observed_measurement = 9.00

[[record]]
chem_smiles = "CC(C)c1nc(-c2cccc(NS(=O)(=O)c3c(F)cccc3F)c2F)c(-c2ccnc(NCCS(C)(=O)=O)n2)s1"
target_or_system = "Serine/threonine-protein kinase B-raf (Homo sapiens, UniProt P15056, V600E)"
measurement_kind = "pIC50"
observed_measurement = 9.52

[[record]]
chem_smiles = "CC(C)c1nc(-c2cccc(NS(=O)(=O)c3cccc(F)c3)c2)c(-c2ccnc(NC3CC3)n2)s1"
target_or_system = "Serine/threonine-protein kinase B-raf (Homo sapiens, UniProt P15056, V600E)"
measurement_kind = "pIC50"
observed_measurement = 7.49

[[record]]
chem_smiles = "CC(C)(C)c1nc(-c2cccc(NS(=O)(=O)c3cc(F)ccc3F)c2)c(-c2ccnc(N)n2)s1"
target_or_system = "Serine/threonine-protein kinase B-raf (Homo sapiens, UniProt P15056, V600E)"
measurement_kind = "pIC50"
observed_measurement = 8.10


Prompt: Item CC(C)c1nc(-c2cccc(NS(=O)(=O)c3c(F)cccc3F)c2)c(-c2ccnc(N)n2)s1 has what recorded pIC50?
Completion: 7.40

Prompt: Another compound to look at: CC(C)c1nc(-c2cccc(NS(=O)(=O)c3cccc(F)c3)c2)c(-c2ccnc(NCC(N)=O)n2)s1
Completion: 7.96

Prompt: Another compound to look at: CC(C)c1nc(-c2ccc(F)c(NS(=O)(=O)c3c(F)cccc3F)c2)c(-c2ccnc(NCCS(C)(=O)=O)n2)s1
Completion: 7.89

---

Test system: Canis familiaris
Experimental Protocol: Dose-normalized AUC in po dosed dog
Assay type: ADME, organism-based, Canis lupus familiaris
Condition Info: in vivo
Measurement Kind: AUC/dose (ng·h/mL/mg/kg)
Give just the number in ng·h/mL/mg/kg; leave the unit off.

Past entries and their recorded results:
[[record]]
chem_smiles = "CC(C)c1nc(-c2cccc(NS(=O)(=O)c3c(F)cccc3F)c2F)c(-c2ccnc(NCCS(C)(=O)=O)n2)s1"
quantity_unit = "ng·h/mL/mg/kg"
observed_measurement = 68

[[record]]
chem_smiles = "CC(C)c1nc(-c2cccc(NS(=O)(=O)c3c(F)cccc3F)c2F)c(-c2ccnc(Nc3ccc(N4CCOCC4)nc3)n2)s1"
quantity_unit = "ng·h/mL/mg/kg"
observed_measurement = 42

[[record]]
chem_smiles = "CC(C)(C)c1nc(-c2cccc(NS(=O)(=O)c3c(F)cccc3F)c2F)c(-c2ccnc(N)n2)s1"
quantity_unit = "ng·h/mL/mg/kg"
observed_measurement = 3754


API: the following record is the query input.
Prompt: Item CC(C)c1nc(-c2ccc(F)c(NS(=O)(=O)c3c(F)cccc3F)c2)c(-c2ccnc(NCCS(C)(=O)=O)n2)s1 has what recorded AUC/dose?
Completion: 43

---

Reported pIC50 values follow for various molecules
Target Or System: Serine/threonine-protein kinase B-raf (Homo sapiens, UniProt P15056, V600E)
Experimental Protocol: Inhibition of B-Raf V600E mutant in human SK-MEL-28 cells assessed as decrease in ERK phosphorylation incubated for 1 hr by immunoassay
Format: cell-based
Please keep in mind that pIC50 is minus log10 of the molar concentration; only the number is needed.

[[record]]
chem_smiles = "CC(C)c1nc(-c2cccc(NS(=O)(=O)c3c(F)cccc3F)c2F)c(-c2ccnc(Nc3ccc(N4CCOCC4)nc3)n2)s1"
measurement_kind = "pIC50"
observed_measurement = 7.64

[[record]]
chem_smiles = "CC(C)c1nc(-c2cccc(NS(=O)(=O)c3c(F)cccc3F)c2)c(-c2ccnc(N)n2)s1"
measurement_kind = "pIC50"
observed_measurement = 7.11


API: the following record is the query input.
Prompt: Item CC(C)c1nc(-c2cccc(NS(=O)(=O)c3cccc(F)c3)c2)c(-c2ccnc(NCC(N)=O)n2)s1 has what recorded pIC50?
Completion: 7.59

---

Experimental Protocol: Oral bioavailability in dog
Type: ADME, organism-based, Canis lupus familiaris
Condition Info: in vivo
Measurement Kind: bioavailability

Prompt: Item CC(C)c1nc(-c2cccc(NS(=O)(=O)c3c(F)cccc3F)c2F)c(-c2ccnc(Nc3ccc(N4CCOCC4)nc3)n2)s1 has what recorded bioavailability?
Completion: 10%

---

Target Or System: Serine/threonine-protein kinase B-raf (Homo sapiens, UniProt P15056, V600E)
Experimental Protocol: Inhibition of N-terminal His tagged B-Raf V600E mutant (unknown origin) expressed in baculovirus infected insect cells co-expressing CDC37 assessed as decrease in biotinylated-MEK protein phosphorylation by AlphaScreen assay
Reported pIC50 values follow for various molecules
Please keep in mind that pIC50 is minus log10 of the molar concentration; only the number is needed.

Past entries and their recorded results:
[[record]]
chem_smiles = "CC(C)c1nc(-c2cccc(NS(=O)(=O)c3cccc(F)c3)c2)c(-c2ccnc(NCCCN(C)C)n2)s1"
observed_measurement = 7.55

[[record]]
chem_smiles = "CC(C)(C)c1nc(-c2ccc(F)c(NS(=O)(=O)c3c(F)cccc3F)c2)c(-c2ccnc(NCCS(C)(=O)=O)n2)s1"
observed_measurement = 7.89


API: the following record is the query input.
Prompt: Item CC(C)c1nc(-c2ccc(F)c(NS(=O)(=O)c3cccc(F)c3)c2)c(-c2ccnc(N)n2)s1 has what recorded pIC50?
Completion: 6.27

---

Reported pIC50 values follow for various compounds
Target Or System: Serine/threonine-protein kinase B-raf (Homo sapiens, UniProt P15056, V600E)
Experimental Protocol: Inhibition of B-Raf V600E mutant in human SK-MEL-28 cells assessed as decrease in ERK phosphorylation incubated for 1 hr by immunoassay
Type: cell-based
Please keep in mind that pIC50 is minus log10 of the molar concentration; only the number is needed.

Prompt: Item CC(C)(C)c1nc(-c2cccc(NS(=O)(=O)c3cc(F)ccc3F)c2)c(-c2ccnc(N)n2)s1 has what recorded pIC50?
Completion: 8.15

Prompt: Another compound to look at: CC(C)c1nc(-c2ccc(F)c(NS(=O)(=O)c3c(F)cccc3F)c2)c(-c2ccnc(NCCS(C)(=O)=O)n2)s1
Completion: 7.29

Prompt: Another compound to look at: CC(C)c1nc(-c2cccc(NS(=O)(=O)c3cccc(F)c3)c2)c(-c2ccnc(NCCCN(C)C)n2)s1
Completion: 7.14

Where these numbers come from: ChEMBL document CHEMBL2331286
